This collection of values is drawn from patent US20080125432A1.

target: human Kv4.3/KChIP2.2 potassium channel (Homo sapiens); construct: expressed in transfected cells; assay: Whole cell patch clamp, CHO-K1 cells stably expressing human Kv4.3/KChIP2.2; assay type: cell-based; settings: CHO-K1; remaining current measured after application of the compound and relative to the blank; read-out: Kv4.3 charge in %
Sequence (Q9UK17 whole entry): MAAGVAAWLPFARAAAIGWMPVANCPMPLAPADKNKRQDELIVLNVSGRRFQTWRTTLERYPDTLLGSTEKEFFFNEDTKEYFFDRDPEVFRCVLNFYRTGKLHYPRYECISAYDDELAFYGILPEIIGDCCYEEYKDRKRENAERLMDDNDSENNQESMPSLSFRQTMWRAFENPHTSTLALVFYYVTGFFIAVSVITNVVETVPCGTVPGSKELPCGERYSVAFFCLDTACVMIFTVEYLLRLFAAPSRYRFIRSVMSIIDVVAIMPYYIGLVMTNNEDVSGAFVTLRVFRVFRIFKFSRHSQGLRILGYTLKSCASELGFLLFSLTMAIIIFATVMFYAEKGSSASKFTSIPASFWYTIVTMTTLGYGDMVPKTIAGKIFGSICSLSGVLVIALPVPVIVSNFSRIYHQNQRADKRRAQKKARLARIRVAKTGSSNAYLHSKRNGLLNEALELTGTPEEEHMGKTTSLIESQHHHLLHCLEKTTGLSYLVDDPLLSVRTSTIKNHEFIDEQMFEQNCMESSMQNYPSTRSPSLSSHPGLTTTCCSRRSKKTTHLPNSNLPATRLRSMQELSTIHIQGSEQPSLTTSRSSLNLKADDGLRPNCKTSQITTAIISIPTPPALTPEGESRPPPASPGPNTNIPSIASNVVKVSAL
So basically: is remaining activity at 1 µM under 60%? Then yes (1). Not under? Then no (0).

Known results for compounds:
[[record]]
structure_smiles = "COc1ccccc1Nc1nc(C)c(C(=O)NCc2ccc(-c3cccs3)cc2)s1"
test_system = "human Kv4.3/KChIP2.2 potassium channel (Homo sapiens)"
assigned_class = "no (0)"

[[record]]
structure_smiles = "COc1ccccc1Nc1nc(C)c(C(=O)OCc2ccccc2)s1"
test_system = "human Kv4.3/KChIP2.2 potassium channel (Homo sapiens)"
assigned_class = "yes (1)"

[[record]]
structure_smiles = "COc1ccccc1Nc1nc(C)c(C(=O)N2CCC(c3ccccc3OC)CC2)s1"
test_system = "human Kv4.3/KChIP2.2 potassium channel (Homo sapiens)"
assigned_class = "no (0)"

[[record]]
structure_smiles = "COc1ccccc1Nc1nc(C)c(C(=O)NCc2ccc(C(C)(C)C)cc2)s1"
test_system = "human Kv4.3/KChIP2.2 potassium channel (Homo sapiens)"
assigned_class = "yes (1)"


Consider COc1ccccc1Nc1nc(C)c(C(=O)N[C@H]2CCC[C@@H]2OCc2ccccc2)o1 . Does its remaining activity at 1 µM lie strictly below 60%?
no (0)

Consider Cc1nc(Nc2cccc3ccccc23)sc1C(=O)N[C@H]1CCC[C@@H]1OCc1ccccc1 . Does its remaining activity at 1 µM lie strictly below 60%?
no (0)

----------
readout type: melting point

Some solved cases for reference:
[[record]]
structure_smiles = "COc1ccccc1Nc1nc(C)c(C(=O)NCc2c(C)cccc2Cl)s1"
reported_result = "105.4 to 107.6 °C"

[[record]]
structure_smiles = "COc1ccccc1Nc1nc(C)c(C(=O)NCc2cc(C)ccc2C)s1"
reported_result = "124.1 to 124.9 °C"


Give its melting point value. Item: COc1ccccc1N(C(C)=O)c1nc(C)c(C(=O)N[C@H]2CCC[C@@H]2OCc2ccccc2)s1
145.8 to 149 °C

Give its melting point value. Item: COc1ccccc1Nc1nc(C)c(C(=O)N2CCC(C(=O)c3ccc(F)cc3)CC2)s1
92.6 to 99.6 °C

Give its melting point value. Item: Cc1nc(Nc2cccc3ccccc23)sc1C(=O)N[C@H]1CCC[C@@H]1OCc1ccccc1
102.4 to 108.2 °C

Give its melting point value. Item: COC(=O)[C@H](NC(=O)c1sc(Nc2ccccc2OC)nc1C)c1ccccc1
131.4 to 137.9 °C

Give its melting point value. Item: COc1ccccc1Nc1nc(C)c(C(=O)N[C@H](C(=O)O)c2ccccc2)s1
259.6 to 262 °C

Give its melting point value. Item: COc1ccccc1Nc1nc(C)c(C(=O)Cc2ccccc2)s1
131.7 to 140.6 °C

----------
target: hERG potassium channel (Homo sapiens, UniProt Q12809); construct: host or cells: HEK 293 T-REx; assay: Whole cell patch clamp, HEK 293 T-REx HERG cells; type: cell-based; conditions: patch clamp; read-out: hERG IC50
Sequence (Q12809 whole entry): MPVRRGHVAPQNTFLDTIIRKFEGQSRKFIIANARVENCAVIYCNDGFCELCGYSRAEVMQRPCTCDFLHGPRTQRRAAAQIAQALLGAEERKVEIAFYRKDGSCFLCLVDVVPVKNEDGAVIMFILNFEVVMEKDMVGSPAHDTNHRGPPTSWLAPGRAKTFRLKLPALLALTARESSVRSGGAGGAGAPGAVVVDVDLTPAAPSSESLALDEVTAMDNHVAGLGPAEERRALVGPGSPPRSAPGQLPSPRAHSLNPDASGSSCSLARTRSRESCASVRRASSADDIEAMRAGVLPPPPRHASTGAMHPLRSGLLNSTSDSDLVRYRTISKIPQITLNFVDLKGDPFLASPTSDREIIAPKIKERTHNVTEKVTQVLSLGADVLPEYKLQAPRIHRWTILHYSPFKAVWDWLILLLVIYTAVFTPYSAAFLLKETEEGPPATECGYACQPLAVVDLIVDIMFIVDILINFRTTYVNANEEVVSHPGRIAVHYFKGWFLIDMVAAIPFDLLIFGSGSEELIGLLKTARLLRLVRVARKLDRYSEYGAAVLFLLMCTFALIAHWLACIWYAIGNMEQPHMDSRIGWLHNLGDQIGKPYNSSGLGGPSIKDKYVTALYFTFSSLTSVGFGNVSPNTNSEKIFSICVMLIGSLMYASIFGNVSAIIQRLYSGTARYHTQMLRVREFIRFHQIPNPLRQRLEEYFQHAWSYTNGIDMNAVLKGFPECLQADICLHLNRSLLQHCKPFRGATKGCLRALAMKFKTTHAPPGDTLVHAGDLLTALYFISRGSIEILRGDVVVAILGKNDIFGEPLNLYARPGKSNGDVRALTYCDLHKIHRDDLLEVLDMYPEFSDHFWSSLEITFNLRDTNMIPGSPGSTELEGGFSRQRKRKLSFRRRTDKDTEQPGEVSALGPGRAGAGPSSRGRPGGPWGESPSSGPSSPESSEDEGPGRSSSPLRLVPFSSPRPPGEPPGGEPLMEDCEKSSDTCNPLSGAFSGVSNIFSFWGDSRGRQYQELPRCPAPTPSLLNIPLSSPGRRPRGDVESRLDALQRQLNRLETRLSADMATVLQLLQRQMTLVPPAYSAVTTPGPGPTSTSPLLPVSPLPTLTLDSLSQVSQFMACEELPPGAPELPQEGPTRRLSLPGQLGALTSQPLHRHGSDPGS
readout type: IC50

Some solved cases for reference:
[[record]]
molecule = "Cc1nc(Nc2ccc(Cl)cc2)sc1C(=O)N[C@H](C)c1ccc2ccccc2c1 [Compound 52]"
reported_result = "24.2 µM"

[[record]]
molecule = "Cc1nc(Nc2ccc(Br)cc2)sc1C(=O)NCc1ccc(N(C)C)cc1 [Compound 64]"
reported_result = "> 100 µM"

[[record]]
molecule = "Cc1nc(Nc2ccc(Cl)cc2)sc1C(=O)N[C@@H](C)c1ccc2ccccc2c1 [Compound 54]"
reported_result = "15.8 µM"

[[record]]
molecule = "Cc1nc(Nc2ccc(Cl)cc2)sc1C(=O)N[C@@H]1CCC[C@H]1OCc1ccccc1 [Compound 30]"
reported_result = "11 µM"


Form field: IC50 recorded for Cc1nc(Nc2ccc(Br)cc2)sc1C(=O)NCc1cccc2ccccc12 [Compound 56] with hERG potassium channel (Homo sapiens, UniProt Q12809) (enter value)
7.04 µM

----------
biological target: Kv1.5 (Homo sapiens, UniProt P22460); construct: endogenous in cells; experiment: Whole-cell patch clamp in human atrial myocytes: Kv1.5 current calculated from Isus; details: dose-response analysis; Kv1.5 derived from subtracting the remaining current from the end of pulse current amplitude
Sequence (P22460 whole entry): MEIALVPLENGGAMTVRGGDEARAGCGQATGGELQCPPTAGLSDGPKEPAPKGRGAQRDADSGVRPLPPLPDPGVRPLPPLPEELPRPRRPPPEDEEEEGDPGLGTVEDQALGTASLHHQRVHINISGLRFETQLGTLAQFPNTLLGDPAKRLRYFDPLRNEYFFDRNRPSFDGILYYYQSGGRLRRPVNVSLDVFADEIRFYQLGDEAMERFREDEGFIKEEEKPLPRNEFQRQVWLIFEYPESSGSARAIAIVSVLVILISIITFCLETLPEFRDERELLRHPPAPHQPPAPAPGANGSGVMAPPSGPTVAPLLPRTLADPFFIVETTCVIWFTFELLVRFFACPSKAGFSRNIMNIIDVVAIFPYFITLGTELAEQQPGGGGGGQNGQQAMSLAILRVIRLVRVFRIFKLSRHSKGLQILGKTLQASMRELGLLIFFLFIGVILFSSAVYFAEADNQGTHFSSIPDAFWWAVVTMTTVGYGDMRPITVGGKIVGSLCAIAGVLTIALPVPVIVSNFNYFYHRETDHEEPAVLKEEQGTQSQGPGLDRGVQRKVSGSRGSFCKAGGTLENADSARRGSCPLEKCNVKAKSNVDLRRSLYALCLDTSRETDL
readout type: pIC50
pIC50 is a log-scale quantity: -log10 of the concentration expressed in molar.

Form field: pIC50 recorded for COc1ccccc1Nc1nc(C)c(C(=O)N[C@H]2CCC[C@@H]2OCc2ccccc2)s1 with Kv1.5 (Homo sapiens, UniProt P22460) (enter value)
5.85

----------
Catalogue of EC50 values
molecular target: human Kv4.3 (Homo sapiens, UniProt Q9UK17); construct: expressed in transfected cells; host or cells: transgenic C. elegans strain UG1755 (N2 injected with plasmid pGV8, integrated array); experiment: C. elegans based high-throughput screen for Kv4.3 modulators (pharynx pumping, Calcein AM uptake), transgenic strain UG1755; type: in vivo; details: transgenic strain UG1755 expressing human Kv4.3; read-out: EC50 (μM) Kv4.3 worm
Write the number in µM without appending the unit.

Some solved cases for reference:
[[record]]
structure_smiles = "C[C@@H](NC(=O)c1csc(Nc2ccc(F)cc2)n1)c1ccc([N+](=O)[O-])cc1"
readout_type = "EC50"
reported_result = 22.7

[[record]]
structure_smiles = "Cc1nc(Nc2ccc(Br)cc2)sc1C(=O)NCc1ccc([N+](=O)[O-])cc1"
readout_type = "EC50"
reported_result = 14.6

[[record]]
structure_smiles = "CCCN(Cc1ccc([N+](=O)[O-])cc1)C(=O)c1csc(Nc2ccc(Cl)cc2)n1"
readout_type = "EC50"
reported_result = 21.4


Now consider the entry below.
Give its EC50 value. Item: Cc1nc(Nc2ccc(Br)cc2)sc1C(=O)N[C@H](C)c1ccc([N+](=O)[O-])cc1
11.7

----------
Tested on: C. elegans wild-type strain N2
Test: Same C. elegans pumping assay format using wild-type strain N2
Assay type: in vivo
Details: Caenorhabditis elegans, read-out: EC50 (μM) Wild type worm N2
Protocol: The screening of the compounds according to the present invention has been performed in the C. elegans based high-throughput screen for Kv4.3 modulators described above. […] After another four hours of incubation at 20° C., the drinking of C. elegans animals (or the “reaction 8 measured by the uptake of CAM) has been stopped by adding 10 μl of a 60 μM ivermectin solution. […]
readout type: EC50

Some solved cases for reference:
[[record]]
structure_smiles = "Cc1nc(Nc2ccc(Br)cc2)sc1C(=O)NCc1ccc([N+](=O)[O-])cc1"
readout_type = "EC50"
reported_result = "41 µM"

[[record]]
structure_smiles = "Cc1nc(Nc2ccc(Br)cc2)sc1C(=O)N[C@H](C)c1ccc([N+](=O)[O-])cc1"
readout_type = "EC50"
reported_result = "> 30 µM"


Now consider the entry below.
Form field: EC50 recorded for Cc1cc(C)cc(Nc2nc(C(=O)N[C@H]3CCCC[C@@H]3OCc3ccccc3)cs2)c1 with C. elegans wild-type strain N2 (enter value)
39 µM

----------
Catalogue of EC50 values
Tested on: C. elegans wild-type strain N2
Test: Same C. elegans pumping assay format using wild-type strain N2
Format: in vivo
Details: Caenorhabditis elegans, read-out: EC50 (μM) Wild type worm N2
Experimental: The screening of the compounds according to the present invention has been performed in the C. elegans based high-throughput screen for Kv4.3 modulators described above. […] After another four hours of incubation at 20° C., the drinking of C. elegans animals (or the “reaction 8 measured by the uptake of CAM) has been stopped by adding 10 μl of a 60 μM ivermectin solution. […]

Some solved cases for reference:
[[record]]
structure_smiles = "COc1ccc(Cl)cc1Nc1nc(C(=O)N[C@@H]2CCCC[C@H]2OCc2ccccc2)cs1"
readout_type = "EC50"
reported_result = "> 30 µM"

[[record]]
structure_smiles = "Cc1nc(Nc2ccc(Br)cc2)sc1C(=O)NCc1ccccc1"
readout_type = "EC50"
reported_result = "> 60 µM"


Now consider the entry below.
Give its EC50 value. Item: Cc1nc(Nc2ccc(Br)cc2)sc1C(=O)NCc1cc(C(F)(F)F)cc(C(F)(F)F)c1
> 30 µM

----------
Catalogue of EC50 values
target: human Kv4.3 (Homo sapiens, UniProt Q9UK17); construct: expressed in transfected cells; host or cells: transgenic C. elegans strain UG1755 (N2 injected with plasmid pGV8, integrated array); experiment: C. elegans based high-throughput screen for Kv4.3 modulators (pharynx pumping, Calcein AM uptake), transgenic strain UG1755; format: in vivo; details: transgenic strain UG1755 expressing human Kv4.3; read-out: EC50 (μM) Kv4.3 worm
Write the number in µM without appending the unit.

Form field: EC50 recorded for Cc1nc(Nc2ccc(Cl)cc2)sc1C(=O)N[C@@H]1CCC[C@H]1OCc1ccccc1 [Compound 30] with human Kv4.3 (Homo sapiens, UniProt Q9UK17) (enter value)
9

Form field: EC50 recorded for O=C(N[C@H]1CCCC[C@@H]1OCc1ccccc1)c1csc(Nc2ccc(Cl)cc2)n1 [Compound 41] with human Kv4.3 (Homo sapiens, UniProt Q9UK17) (enter value)
22

Form field: EC50 recorded for O=C(N[C@@H]1CCC[C@H]1OCc1ccccc1)c1csc(Nc2ccccc2)n1 [Compound 48] with human Kv4.3 (Homo sapiens, UniProt Q9UK17) (enter value)
2

Form field: EC50 recorded for Cc1nc(Nc2ccc(F)cc2)sc1C(=O)N[C@H](C)c1ccc2ccccc2c1 [Compound 16] with human Kv4.3 (Homo sapiens, UniProt Q9UK17) (enter value)
32.1

Form field: EC50 recorded for Cc1cc(C)cc(Nc2nc(C(=O)N[C@H]3CCCC[C@@H]3OCc3ccccc3)cs2)c1 [Compound 46] with human Kv4.3 (Homo sapiens, UniProt Q9UK17) (enter value)
14

Form field: EC50 recorded for Cc1nc(Nc2ccc(F)cc2)sc1C(=O)N[C@@H](C)c1ccc2ccccc2c1 [Compound 15] with human Kv4.3 (Homo sapiens, UniProt Q9UK17) (enter value)
10.1
